# credit: PubChem BioAssay AID860

# target: Muscarinic acetylcholine receptor M4 (Rattus norvegicus)
# test.protocol: rat M4 receptor inhibition concentration-response – cell-based, antagonist mode, counter-screen for M1 allosteric modulator project, dose response (AID 860)
# condition.details: rat M4-expressing cells, calcium fluorescence, antagonist mode at EC80 agonist
Consider the following compounds and their measured IC50 readings.

1) CCCC(CCC)C(=O)OC1C[C@H]2CC[C@@H](C1)[N+]2(C)C (stereo partly drawn) | 29.4 nM

Report measured IC50 on Muscarinic acetylcholine receptor M4 (Rattus norvegicus); entry: `CN(C)CCCOC(=O)C1c2ccccc2Oc2ccccc21`
215 nM

Report measured IC50 on Muscarinic acetylcholine receptor M4 (Rattus norvegicus); entry: CN(C)CCOC(=O)C(c1ccccc1)C1(O)CCCC1 (stereo not drawn)
11.7 nM

Report measured IC50 on Muscarinic acetylcholine receptor M4 (Rattus norvegicus); entry: `CNCCCC1c2ccccc2C=Cc2ccccc21`
925 nM
